Tested on: Abutilon theophrasti (ABUTH)
Test: Post-emergence glasshouse herbicide test, percentage damage to plant
Type: in vivo
Settings: POST Application, 125 g/ha, evaluated after 14 days
measured-metric: ABUTH percentage damage caused to the plant (five point scale)

{"columns": ["compound", "experimental-result"],
 "data": [
  ["Cc1cc(C(=O)C2=C([O-])CCCC2=O)c(=O)n(CCOC(=O)N2CCCC2)n1.[Na+] [Compound 1.024]", "2 (2=20-39%)"],
  ["Cc1cc(C(=O)C2=C([O-])CC(C)(C)CC2=O)c(=O)n(CCOC(=O)N(C)C)n1.[Na+] [Compound 1.027]", "5 (5=80-100%)"],
  ["Cc1cc(C(=O)C2=C([O-])CCCC2=O)c(=O)n(CC(F)(F)C(=O)N(C)C)n1.[Na+] [Compound 1.018]", "5 (5=80-100%)"],
  ["Cc1cc(C(=O)C2=C([O-])CC(C)CC2=O)c(=O)n(CCC(=O)N(C)C)n1.[Na+] (stereo not shown) [Compound 1.010]", "5 (5=80-100%)"]
]}
